Recorded Ratio EC50 values for a group of compounds are listed next.
test: Liver blood index, ratio of EC50 for Plasmodium falciparum W2 to EC50 for Plasmodium berghei; type: functional

{"structure": "CCCCc1cc2c(=O)c(C(=O)NC)c[nH]c2cc1OCCOc1ccccc1", "experimental_value": 4.63}
{"structure": "CCCCc1cc2c(=O)c(Br)c(C)[nH]c2cc1OCCOc1ccccc1", "experimental_value": 1.23}
{"structure": "COC(=O)c1c[nH]c2ccc(OC)cc2c1=O", "experimental_value": 6.05}

Query :: Could you share which Ratio EC50 value was measured for CCc1cc2c(=O)c(C(=O)OC)c[nH]c2cc1OCCOc1ccccc1 ?
Result :: 0.626
